Assign IC50 to each entry below.
# measured on: mGlyT-1b (Mus musculus, UniProt P28571)
# Sequence (P28571 1-651 isoform P28571-2): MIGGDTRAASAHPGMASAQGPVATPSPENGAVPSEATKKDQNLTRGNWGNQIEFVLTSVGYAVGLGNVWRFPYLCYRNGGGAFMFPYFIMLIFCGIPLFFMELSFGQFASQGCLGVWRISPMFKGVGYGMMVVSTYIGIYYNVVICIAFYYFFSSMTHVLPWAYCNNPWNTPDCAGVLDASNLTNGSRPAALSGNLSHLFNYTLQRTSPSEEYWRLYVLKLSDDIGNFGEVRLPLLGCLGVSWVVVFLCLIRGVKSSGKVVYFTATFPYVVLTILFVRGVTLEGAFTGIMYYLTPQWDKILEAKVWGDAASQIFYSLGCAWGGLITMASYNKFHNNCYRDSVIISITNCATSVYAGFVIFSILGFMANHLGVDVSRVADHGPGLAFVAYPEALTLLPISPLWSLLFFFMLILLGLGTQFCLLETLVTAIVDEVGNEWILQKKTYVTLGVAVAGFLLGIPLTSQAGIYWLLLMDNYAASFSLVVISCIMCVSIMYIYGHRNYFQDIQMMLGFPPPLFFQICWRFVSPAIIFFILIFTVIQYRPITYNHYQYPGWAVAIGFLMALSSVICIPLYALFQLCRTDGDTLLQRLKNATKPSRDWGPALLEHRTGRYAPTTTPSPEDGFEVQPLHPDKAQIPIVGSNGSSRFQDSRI
# method summary: Glycine uptake inhibition assay (mGlyT-1b)
# experimental context: [3H]-glycine uptake, Flp-in-CHO cells stably transfected with mGlyT1b cDNA, 20 min preincubation at 22° C.
Counter-ions that a name gives are not always drawn.
Numbers only, in µM.

{"columns": ["compound", "IC50 / µM"],
 "data": [
  ["CO[C@@H]1CN(C)C[C@](NC(=O)c2ccc(C(F)(F)F)cc2C2CC2)(c2ccccc2)C1 (racemic) [Example 126]", 0.0312],
  ["COc1cc(C(F)(F)F)cc(SC)c1C(=O)NC1(c2cccc(C)c2)CCCN(C)C1 (racemic) [Example 96]", 0.0682],
  ["CN1CCCC(NC(=O)c2ccc(C(F)(F)F)cc2OC(F)F)(c2ccccc2)C1 (racemic) [Example 39]", 0.184],
  ["COc1cc(C(F)(F)F)cc(SC)c1C(=O)NC1(c2cccc(Cl)c2)CCCN(C)C1 (racemic) [Example 45, hydrochloride]", 0.0245]
]}

Parameter requested: IC50. Apply to each item below.
1. COc1cc(C(F)(F)F)cc(SC)c1C(=O)NC1(c2ccccc2)CCC(C)(C)N(C)C1 (racemic) [Example 84, hydrochloride]
2. COc1cc(C(F)(F)F)cc(SC)c1C(=O)NC1(c2cccc(Br)c2)CCCN(C)C1 (racemic) [Example 87, hydrochloride]
3. COc1cc(C(F)(F)F)cc(SC)c1C(=O)NC1(c2ccccc2)CCCN(C)C1 (racemic) [Example 18]

Output line:
0.0173
0.0396
0.0244
